// provenance: patent US11672792B2

- assay.text: in vivo
- run.conditions: Sprague Dawley, rat, skin (unscalded intact, full thickness), topical, 1 g montelukast cream
attribute.measured: concentration at 3 h (ng/g)
State just the number; it will be interpreted in ng/g.

Q: Reported concentration at 3 h for CC(C)(O)c1ccccc1CC[C@@H](SCC1(CC(=O)O)CC1)c1cccc(/C=C/c2ccc3ccc(Cl)cc3n2)c1 [Mon, Montelukast sodium] : what is it?
A: 13400

* * *

- assay.text: in vivo
- run.conditions: Sprague Dawley, rat, skin (unscalded intact, full thickness), topical, 1 g montelukast cream
attribute.measured: concentration at 6 h (ng/g)
Note: unit ng/g is implicit; provide only the numeric part.

Q: concentration at 6 h for CC(C)(O)c1ccccc1CC[C@@H](SCC1(CC(=O)O)CC1)c1cccc(/C=C/c2ccc3ccc(Cl)cc3n2)c1 [Mon, Montelukast sodium] ?
A: 15600
